system: SNB-19 CNS; assay: NCI-60 one-dose screen, 48 h (100 = growth as untreated, 0 = no growth, -100 = all killed); settings: 10 µM unless noted
Compounds without any hit were thinned out: in the full panel of roughly 83,000, 20% have a hit.
property: growth (%)

* CCCn1cnc2c(c1=N)C(c1ccc(Cl)cc1)c1sc3c(CC)cccc3c1O2 (centres undefined) | 23.1
* CS(=O)(=O)Nc1cc(-c2ccc3ncc(C#N)c(NCc4ccccc4O)c3c2)cnc1Cl | 11.9
* COc1ccc2c(c1)c(CC(=O)[Se]CC(=O)O)c(C)n2C(=O)c1ccc(Cl)cc1 | 40.7
* CCOc1ccccc1NC1=C(Cl)C(=O)c2nc(C)ccc2C1=O | 46.5
* CC(C)(C)n1cc(-c2ccnc(NCCCNS(=O)(=O)c3cccc(F)c3)n2)c(-c2ccc(Cl)c(O)c2)n1 | 103
* Nc1nc(Nc2ccccc2SSc2ccccc2Nc2nc(N)nc(-c3cccc(Br)c3)n2)nc(-c2cccc(Br)c2)n1 | 25.4
* c1cn2c(ccc3nc(-c4cn[nH]c4)c4c(c32)CCCC4)n1 | 75.5
* N#Cc1cccc(CN2CCC3=C(C2)C(=O)N(Cc2ccc(Cl)cc2)C2=NCCN23)c1 | 23.7
* NS(=O)(=O)c1ccc(Nc2nc(N/N=C/c3ccccn3)nc(Nc3ccccc3)n2)cc1 | 9.62

---

test system: 786-0 renal; assay: NCI-60 one-dose screen, 48 h (100 = growth as untreated, 0 = no growth, -100 = all killed); settings: 10 µM unless noted
This is part of a sample that, as a whole, favours compounds with a hit. Of some 83,000 tested, about 20% had one in any assay.
// label = rule met if growth is not less than 60%, otherwise rule not met

- COc1ccc(COc2ccc(/C=C3\C(=O)Nc4ccccc43)cc2OC)cc1: rule met
- O=C(NNc1nc2cc(F)ccc2n2c(CN3CCCC3)ccc12)c1cnccn1: rule not met
- O=C(c1ccc(Cl)cc1)C1[C@H](c2ccc(Cl)cc2)[C@@H](c2ccccc2)NC12C(=O)Nc1ccccc12 (some centres undefined): rule met
- O=C(CSc1nc2ccccc2c(=O)n1-c1ccccc1)Nc1cccc(C(=O)/C=C/c2ccccc2)c1: rule met
- COc1ccccc1-n1cc(C#N)c(N)c1C(=O)c1ccc(C)cc1: rule met
- O=C(NNc1nc2cc(F)cc(F)c2n2cccc12)c1cnccn1: rule not met
- CC1(C)CC[C@]2(C(=O)N3CCOCC3)CC[C@]3(C)C(=CC[C@@H]4[C@@]5(C)C/C(=C/c6ccccn6)C(=O)C(C)(C)[C@@H]5CC[C@]43C)[C@@H]2C1: rule met
- COc1ccc2c(c1)c(CC(=O)[Se]CC(=O)O)c(C)n2C(=O)c1ccc(Cl)cc1: rule met
- CC(=O)C1=C(C)NC(NNC(N)=S)=NC1c1ccccc1 (centres undefined): rule met

---

system: HCC-2998 colon; test: NCI-60 one-dose screen, 48 h (100 = growth as untreated, 0 = no growth, -100 = all killed); details: 10 µM unless noted
This is part of a sample that, as a whole, favours compounds with a hit. Of some 83,000 tested, about 20% had one in any assay. Activity calls are given as the source filed them. The calls were made as follows: active = growth percent below 10; inactive = the rest.
Here, each record is paired with measured growth data.
property: growth

• CN1CCN(Cc2ccc(NC(=O)c3cncc(C#Cc4cnn5cccnc45)c3)cc2C(F)(F)F)CC1 = 12.7% (inactive)
• CC(=O)c1ccc(Nc2nc(SCC(C)C)nc(-c3ccccc3)c2C#N)cc1 = 105% (inactive)
• CC(=O)c1cc(C(=O)N2c3ccccc3Sc3ccccc32)n2ccc3ccccc3c12 = 74.9% (inactive)
• COc1ccccc1N1CCN(C2=CC(=O)C(C)=C(C)C2=O)CC1 = 110% (inactive)
• O=[N+]([O-])c1cc(/C=N/Nc2nc(N/N=C/c3ccc(Cl)c([N+](=O)[O-])c3)nc(N3CCCCC3)n2)ccc1Cl = 67.4% (inactive)
